pKd for assorted binders
Biological target: T1, PUF4 RNA-binding domain (Saccharomyces cerevisiae, UniProt P25339 537-888)
T1 sequence: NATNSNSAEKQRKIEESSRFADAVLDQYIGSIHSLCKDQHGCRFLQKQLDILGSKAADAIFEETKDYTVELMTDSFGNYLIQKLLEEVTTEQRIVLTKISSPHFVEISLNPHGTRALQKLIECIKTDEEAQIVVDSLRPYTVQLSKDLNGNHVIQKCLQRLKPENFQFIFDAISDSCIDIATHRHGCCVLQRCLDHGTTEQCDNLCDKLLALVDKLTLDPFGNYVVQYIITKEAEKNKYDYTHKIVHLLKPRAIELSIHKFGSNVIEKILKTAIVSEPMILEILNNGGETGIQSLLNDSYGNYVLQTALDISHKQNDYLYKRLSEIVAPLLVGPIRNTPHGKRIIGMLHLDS
Experiment: Mg; RNA-MaP; 20 mM Na-HEPES pH 7.4, 30 mM KOAc, 0.75 mM MgCl2, 0.1% Tween-20, 5% glycerol, 0.1 mg/mL BSA, 2 mM DTT; 25 C; 0.0125-409.6 nM protein
Settings: tags: N-His6-TEV cleaved; C-SNAP kept, Cy3B-labelled; label: tethered on chip by stalled RNA polymerase
Worth noting: pKd values are minus log10 of concentrations stated in mol/L.

Record Ic_S2_P3E.1_K3.1_C3.1_H3.1_A3.1_[T5C]_[A6C]_F3.1_[T7A]_[A8C]_T3.1 (ssRNA) RNA: UUUGAUUAAUAUGAUAUCGUUCUUUCUUGUACCACUUCUUUCUCGAUAUCAUAUUAAUCUUU . Reported pKd: 7.09

Record UCUCUUUGUAUCUUGAUCUCUU (ssRNA) [Ic_S1_P5E.1_K5.1_C5.1_H5.1_A5.1_[T6C]_[A7T]_F5.1_[T9G]_T5.1] . Reported pKd: 7.14

Record Id_i_S4_P3E.3_K3.2_C3.2_[C-2T]_[T-1C]_H3.2_A3.1_F3.1_T3.2 (ssRNA) RNA: UUUGACAACUGAUCGUUCUUUCUUCUAUAUAUAUAUUCUUUCUCGAUCAGUUGUCUUU . Reported pKd: 7.17
